Each recorded value in this set is attributed to the supplement of paper PMC12042874.

# assay explanation: amyloid nucleation score (Sup35N fusion, yeast selection) (log enrichment); library NNK2; higher = more nucleation; inactive = no reads after selection;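 note: zero at mode of non-aggregating sequences after 7 days selection at 30°C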
A collection of substances and their measured amyloid nucleation score
Please give only the number in your answer, with no unit.

Sample `LSIFKGNTNLLLSYVPALNI` ; amyloid nucleation score observed: -1.29

Sample `ILYVACSNMRCPILFMAGA` ; amyloid nucleation score observed: 2.12

Sample `GMKSFR` ; amyloid nucleation score observed: -1.68

Sample `IRSFVSIRMFVCGRSDLRSN` ; amyloid nucleation score observed: -0.22

Sample `KRDRIAFPMEIDDIIKAWM` ; amyloid nucleation score observed: -0.929

Sample `TAVERVSTR` ; amyloid nucleation score observed: 4.94

Sample `PIVLAK` ; amyloid nucleation score observed: -0.672

Sample `LIIQRLEGAF` ; amyloid nucleation score observed: -0.245

Sample `WTDTGMTYLFCNLFWLACGI` ; amyloid nucleation score observed: 5.63

Sample `CVRCTFCIVSVICFSIYLSE` ; amyloid nucleation score observed: -0.448

Sample `KATSCFLDWCGCPWHLMALD` ; amyloid nucleation score observed: 0.496

Sample `LATLVNCCTIVNRSNFGIMH` ; amyloid nucleation score observed: 6.99

Sample `TIYWECYMDILARSGAMWVW` ; amyloid nucleation score observed: -1.34

Sample `WSYCVNERSVIKQGLTCAYV` ; amyloid nucleation score observed: -0.28

Sample `ILRVSGDAERSILFCPCLAI` ; amyloid nucleation score observed: -0.255

Sample `TNSYANMSGTAGNYRSYNIA` ; amyloid nucleation score observed: -0.522

----------
# assay explanation: amyloid nucleation score (Sup35N fusion, yeast selection) (log enrichment); library NNK3; higher = more nucleation; inactive = no reads after selection
assay metric: amyloid nucleation score

Recorded results for 5 substances are shown here.
substance	amyloid nucleation score
TRTMAVDTVGCSENRDAAGD	inactive
RWNGFVVNTFINTLGRLTKC	-0.578
DARVFKAVFRVLCDLVPASC	inactive
SRIFSGISPDVTDPS	inactive
SEHMNGWHHNLTQCEENFRN	inactive

Sample `FGCRSNDNQ` ; amyloid nucleation score observed: inactive

Sample `LGMVYICYYISVIVDPYSYS` ; amyloid nucleation score observed: 0.246

Sample `SWSRYYCLYCG` ; amyloid nucleation score observed: 2.97

Sample `MPIGTSSYFFSQKICHYTSR` ; amyloid nucleation score observed: 1.77

Sample `HLLYYVCRHQQFLWMDVQVE` ; amyloid nucleation score observed: inactive

----------
# assay explanation: amyloid nucleation score (Sup35N fusion, yeast selection) (log enrichment); library NNK1; higher = more nucleation; inactive = no reads after selection
assay metric: amyloid nucleation score

Recorded results for 10 substances are shown here.
substance	amyloid nucleation score
AFNYRSVCWLLGTGSSSWSE	inactive
DNWSMDVLFLWMASLGNKYR	inactive
RRGAKRSLWLIRNLWWDKSK	inactive
SHRWWIM	-0.597
IRGNVKETVIFFKTRFAFCW	0.147
RSVSLNRSTRRRR	1.1
HDIAIMSSVGFSTAHDICSE	0.26
PDVVSTSLILGGLNSPELEH	0.016
VHNNCRWFAGKFPLSRVVLR	0.553
GGIGDQVITRNVGRPREYQR	1.34

Sample `IWVFMVVIMC` ; amyloid nucleation score observed: 1.07

Sample `DFKVAL` ; amyloid nucleation score observed: -0.644

Sample `GYSGLLYVSRVVSYLIHFWV` ; amyloid nucleation score observed: 0.702

Sample `DYSSSFVNCIYKKPGQGMFG` ; amyloid nucleation score observed: 0.133

Sample `TLFCYADMWYNLYHRIVKVR` ; amyloid nucleation score observed: 1.52

Sample `NHEKGQRTVTMWLSLKDSMG` ; amyloid nucleation score observed: 3.02

Sample `KMFVIVWCDFDAGALGATVN` ; amyloid nucleation score observed: -0.488

Sample `FRGFVVGGGT` ; amyloid nucleation score observed: -0.664

Sample `RVYMFLARFGRESGWSVRQW` ; amyloid nucleation score observed: 0.169

Sample `NEECVPHV` ; amyloid nucleation score observed: 0.223

Sample `GIWSNCKYVFSGIMSSYMVS` ; amyloid nucleation score observed: 0.739

Sample `GYTLRPNERPKIRQV` ; amyloid nucleation score observed: 0.244

Sample `IVYSLLYVRMSSNSMWVSV` ; amyloid nucleation score observed: 0.958

Sample `CVFVRVF` ; amyloid nucleation score observed: inactive

Sample `AYPWRITFDAWISYV` ; amyloid nucleation score observed: 0.294

Sample `EWACFRGAYPAYSDLFR` ; amyloid nucleation score observed: -0.327

Sample `GNGHWQQVG` ; amyloid nucleation score observed: 0.001

Sample `ADSLSDELFDYKTYIAVKSF` ; amyloid nucleation score observed: -0.645

Sample `WLIVIGMGRLGIVIMLGGLK` ; amyloid nucleation score observed: 0.723

Sample `IWGNVSLIRGFCPVKLWSQR` ; amyloid nucleation score observed: -0.082
